Experimental target: CnAcs1 (Cryptococcus neoformans)
Method description: biochemical
pIC50: −log10 of the molar value.
Measurement name: pIC50

response.value for `Nc1ncnc2c1ncn2[C@@H]1O[C@H](COP(=O)(O)OC2CCCC2)[C@@H](O)[C@H]1O` (field: pIC50) = < 4.00

----------
Experimental target: LiAcs1 (Leishmania infantum)
Method description: EnzChek pyrophosphate-release coupled assay
Type: biochemical
Measurement name: IC50 (µM)
Write the number in µM without appending the unit.

Look over these answered cases.
>>> recorded_result("CC(C)OP(=O)(O)OC[C@H]1O[C@@H](n2cnc3c(N)ncnc32)[C@H](O)[C@@H]1O [v, Isopropyl-AMP]")
6.7
>>> recorded_result("CCOP(=O)(O)OC[C@H]1O[C@@H](n2cnc3c(N)ncnc32)[C@H](O)[C@@H]1O [ii, Ethyl-AMP]")
2
>>> recorded_result("CCCOP(=O)(O)OC[C@H]1O[C@@H](n2cnc3c(N)ncnc32)[C@H](O)[C@@H]1O [iv, Propyl-AMP]")
13.5
>>> recorded_result("C=CCOP(=O)(O)OC[C@H]1O[C@@H](n2cnc3c(N)ncnc32)[C@H](O)[C@@H]1O [vi, Allyl-AMP]")
12.5
>>> recorded_result("C#CCOP(=O)(O)OC[C@H]1O[C@@H](n2cnc3c(N)ncnc32)[C@H](O)[C@@H]1O [vii, Propargyl-AMP]")
10.2

Lab book: IC50 of Nc1ncnc2c1ncn2[C@@H]1O[C@H](COP(=O)(O)OC2CC2)[C@@H](O)[C@H]1O [iii, Cyclopropyl-AMP] noted as 2.2

IC50 reported for this compound COP(=O)(O)OC[C@H]1O[C@@H](n2cnc3c(N)ncnc32)[C@H](O)[C@@H]1O [i, Methyl-AMP] : 69.9

----------
Experimental target: LiAcs1 (Leishmania infantum, UniProt A4I093)
Sequence (A4I093 1-705): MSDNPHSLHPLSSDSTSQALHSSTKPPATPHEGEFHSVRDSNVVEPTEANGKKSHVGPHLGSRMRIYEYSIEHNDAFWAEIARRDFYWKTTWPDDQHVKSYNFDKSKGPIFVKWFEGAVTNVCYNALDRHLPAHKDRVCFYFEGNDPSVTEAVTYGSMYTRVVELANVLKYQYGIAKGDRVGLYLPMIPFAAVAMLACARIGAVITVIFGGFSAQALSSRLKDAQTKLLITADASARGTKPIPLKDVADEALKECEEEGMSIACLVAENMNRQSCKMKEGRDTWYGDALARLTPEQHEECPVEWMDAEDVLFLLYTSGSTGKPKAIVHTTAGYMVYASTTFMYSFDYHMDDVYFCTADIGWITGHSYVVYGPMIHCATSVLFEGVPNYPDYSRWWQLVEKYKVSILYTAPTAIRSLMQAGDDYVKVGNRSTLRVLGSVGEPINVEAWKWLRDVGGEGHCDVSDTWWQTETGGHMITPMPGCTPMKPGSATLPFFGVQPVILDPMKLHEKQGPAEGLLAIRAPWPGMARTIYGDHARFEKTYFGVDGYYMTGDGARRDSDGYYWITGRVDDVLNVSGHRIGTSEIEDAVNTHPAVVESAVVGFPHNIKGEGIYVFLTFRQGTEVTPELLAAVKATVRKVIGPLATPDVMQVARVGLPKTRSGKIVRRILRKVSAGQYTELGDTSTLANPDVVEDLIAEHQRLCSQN
Method description: biochemical
Measurement name: IC50

IC50 reading for `Nc1ncnc2c1ncn2[C@@H]1O[C@H](COP(=O)(O)OC2CCCC2)[C@@H](O)[C@H]1O` : > 100 µM

----------
Experimental target: CnKbc1 (Cryptococcus neoformans, UniProt J9VT24)
Sequence (J9VT24 1-696): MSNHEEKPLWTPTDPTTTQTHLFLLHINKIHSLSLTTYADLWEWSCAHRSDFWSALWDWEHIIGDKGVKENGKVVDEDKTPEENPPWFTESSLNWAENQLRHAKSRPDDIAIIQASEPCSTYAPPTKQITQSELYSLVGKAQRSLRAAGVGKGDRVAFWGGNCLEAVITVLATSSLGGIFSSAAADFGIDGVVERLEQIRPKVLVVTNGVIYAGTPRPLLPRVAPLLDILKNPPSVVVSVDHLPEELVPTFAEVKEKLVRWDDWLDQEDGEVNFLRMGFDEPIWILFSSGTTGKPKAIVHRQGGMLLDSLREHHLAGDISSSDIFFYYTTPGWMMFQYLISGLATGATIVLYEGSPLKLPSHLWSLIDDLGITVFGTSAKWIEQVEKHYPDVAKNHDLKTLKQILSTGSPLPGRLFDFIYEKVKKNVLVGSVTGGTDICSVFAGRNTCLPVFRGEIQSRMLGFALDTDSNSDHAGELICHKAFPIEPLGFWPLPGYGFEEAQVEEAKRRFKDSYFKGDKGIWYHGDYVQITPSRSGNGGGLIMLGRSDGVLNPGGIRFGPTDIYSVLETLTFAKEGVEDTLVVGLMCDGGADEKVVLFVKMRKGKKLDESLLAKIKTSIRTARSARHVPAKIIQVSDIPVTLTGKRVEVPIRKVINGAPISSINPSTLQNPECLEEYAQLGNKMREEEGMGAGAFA
Method description: biochemical
Measurement name: IC50

compound `Nc1ncnc2c1ncn2[C@@H]1O[C@H](COP(=O)(O)OC2CCCC2)[C@@H](O)[C@H]1O` , IC50 observed: > 100 µM

----------
Experimental target: CnAcs1 (Cryptococcus neoformans, UniProt J9VFT1)
Sequence (J9VFT1 1-680): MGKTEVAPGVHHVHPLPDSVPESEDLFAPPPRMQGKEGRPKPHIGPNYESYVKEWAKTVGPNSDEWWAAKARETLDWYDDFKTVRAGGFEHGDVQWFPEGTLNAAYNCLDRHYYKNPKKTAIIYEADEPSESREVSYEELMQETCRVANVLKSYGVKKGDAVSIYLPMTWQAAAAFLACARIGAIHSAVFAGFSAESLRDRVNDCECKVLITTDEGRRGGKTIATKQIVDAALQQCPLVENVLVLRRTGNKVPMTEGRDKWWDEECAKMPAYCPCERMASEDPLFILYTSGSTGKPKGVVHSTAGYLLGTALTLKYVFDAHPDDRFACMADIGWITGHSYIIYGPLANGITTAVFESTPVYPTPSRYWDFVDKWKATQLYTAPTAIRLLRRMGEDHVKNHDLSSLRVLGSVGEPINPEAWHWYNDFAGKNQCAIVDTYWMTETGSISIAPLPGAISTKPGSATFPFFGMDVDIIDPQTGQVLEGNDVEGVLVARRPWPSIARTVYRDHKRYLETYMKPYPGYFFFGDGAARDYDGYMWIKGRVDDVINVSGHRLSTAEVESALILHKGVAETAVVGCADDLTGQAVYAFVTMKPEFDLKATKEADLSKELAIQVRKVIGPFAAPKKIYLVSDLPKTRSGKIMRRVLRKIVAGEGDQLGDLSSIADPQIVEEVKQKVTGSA
Method description: EnzChek pyrophosphate-release coupled assay
Format: biochemical
Assign labels as follows, please: Fulfilled for IC50 below 9 µM; Not fulfilled for IC50 equal to or exceeding 9 µM.

Would you kindly verify if IC50 of Nc1ncnc2c1ncn2[C@@H]1O[C@H](COP(=O)(O)OC2CC2)[C@@H](O)[C@H]1O [iii, Cyclopropyl-AMP] is strictly less than 9 µM?
Fulfilled

# check: IC50 < 9 µM for C=CCOP(=O)(O)OC[C@H]1O[C@@H](n2cnc3c(N)ncnc32)[C@H](O)[C@@H]1O [vi, Allyl-AMP]
Not fulfilled

In plain terms, does C#CCOP(=O)(O)OC[C@H]1O[C@@H](n2cnc3c(N)ncnc32)[C@H](O)[C@@H]1O [vii, Propargyl-AMP] come in under 9 µM for IC50?
Not fulfilled

In the record for CC(C)OP(=O)(O)OC[C@H]1O[C@@H](n2cnc3c(N)ncnc32)[C@H](O)[C@@H]1O [v, Isopropyl-AMP] , is IC50 less than 9 µM?
Not fulfilled

Threshold test, IC50 < 9 µM: CCOP(=O)(O)OC[C@H]1O[C@@H](n2cnc3c(N)ncnc32)[C@H](O)[C@@H]1O [ii, Ethyl-AMP]
Fulfilled

API: query returns whether the compound falls strictly under 9 µM in IC50. Query: CCCOP(=O)(O)OC[C@H]1O[C@@H](n2cnc3c(N)ncnc32)[C@H](O)[C@@H]1O [iv, Propyl-AMP]
Not fulfilled
